Listed next: entries and their corresponding IC50.
test system: A549; experiment: Cytotoxicity against human A549 cells by SRB method; type: cell-based; conditions: Homo sapiens, A549

{"molecule": "CCC(C)C(=O)O[C@@H]1C([C@@H](OC(C)=O)[C@@]2(O)C(=O)CC[C@]3(C)C2=CC(=O)O[C@H]3c2ccoc2)C(=O)[C@H](C)[C@@H](CC(=O)OC)C1(C)C (some centres not stated)", "IC50": "> 10 µM"}

Let us move to another entry and its IC50.
Answer with reported IC50 of C/C=C(\C)C(=O)O[C@H](C1=CC(C)(C)[C@H](CC(=O)OC)[C@@H](C)C1=O)[C@@]1(O)C(=O)CC[C@]2(C)C1=CC(=O)O[C@H]2c1ccoc1
> 10 µM

Where do these numbers come from? They come from ChEMBL document CHEMBL1142113.
